- experimental-system: (α4L260M)3(β2)2 nAChR (Homo sapiens, UniProt P17787+P43681, L260M)
- Construct: expressed in transfected cells; host or cells: Xenopus laevis oocytes injected with cRNA
- Sequence (P43681 29-627 L260M limits assumed): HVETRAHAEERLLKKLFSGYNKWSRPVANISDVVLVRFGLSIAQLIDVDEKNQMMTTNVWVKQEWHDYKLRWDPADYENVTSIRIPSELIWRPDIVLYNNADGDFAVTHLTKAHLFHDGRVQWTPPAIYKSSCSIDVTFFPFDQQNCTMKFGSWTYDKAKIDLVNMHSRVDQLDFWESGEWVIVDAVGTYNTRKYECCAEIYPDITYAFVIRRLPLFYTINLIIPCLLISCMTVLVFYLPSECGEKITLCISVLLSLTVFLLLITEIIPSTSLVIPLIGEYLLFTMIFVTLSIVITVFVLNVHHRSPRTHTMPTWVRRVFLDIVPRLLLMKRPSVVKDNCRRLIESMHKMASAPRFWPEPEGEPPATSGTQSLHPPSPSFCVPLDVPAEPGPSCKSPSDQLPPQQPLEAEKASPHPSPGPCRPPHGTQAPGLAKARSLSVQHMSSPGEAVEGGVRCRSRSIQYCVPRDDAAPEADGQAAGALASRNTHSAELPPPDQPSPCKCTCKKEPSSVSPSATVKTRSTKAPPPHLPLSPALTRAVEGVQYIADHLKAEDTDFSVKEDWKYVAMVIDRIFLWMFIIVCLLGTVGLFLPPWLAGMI
- Sequence (P17787 26-502): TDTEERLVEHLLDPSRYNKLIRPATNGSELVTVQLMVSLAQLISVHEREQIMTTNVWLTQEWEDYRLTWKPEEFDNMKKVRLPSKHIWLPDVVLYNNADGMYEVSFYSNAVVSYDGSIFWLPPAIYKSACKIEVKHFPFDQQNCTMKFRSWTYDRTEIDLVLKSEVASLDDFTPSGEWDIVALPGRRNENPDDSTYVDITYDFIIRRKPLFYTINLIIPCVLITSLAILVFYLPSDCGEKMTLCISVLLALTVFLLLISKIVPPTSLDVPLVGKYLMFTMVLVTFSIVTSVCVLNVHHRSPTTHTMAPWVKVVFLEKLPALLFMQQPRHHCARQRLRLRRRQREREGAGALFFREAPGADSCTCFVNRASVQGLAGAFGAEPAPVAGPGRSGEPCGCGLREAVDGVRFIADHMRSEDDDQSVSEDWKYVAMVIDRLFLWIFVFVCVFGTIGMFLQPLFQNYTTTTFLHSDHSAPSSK
- experimental-protocol: Two-electrode voltage-clamp of ACh-induced currents in Xenopus oocytes
- Type: cell-based
- condition-info: read-out: LY2087101 potentiation EC50
- Text: […]
property-name: EC50

compound_structure_string=Cc1nc(Nc2ccc(F)cc2)sc1C(=O)c1ccsc1 property_name=EC50 assay_value="2500 nM"

* * *

- experimental-system: (α4L310F)3(β2)2 nAChR (Homo sapiens, UniProt P17787+P43681, L310F)
- Sequence (P43681 29-627 L310F limits assumed, one chain of several): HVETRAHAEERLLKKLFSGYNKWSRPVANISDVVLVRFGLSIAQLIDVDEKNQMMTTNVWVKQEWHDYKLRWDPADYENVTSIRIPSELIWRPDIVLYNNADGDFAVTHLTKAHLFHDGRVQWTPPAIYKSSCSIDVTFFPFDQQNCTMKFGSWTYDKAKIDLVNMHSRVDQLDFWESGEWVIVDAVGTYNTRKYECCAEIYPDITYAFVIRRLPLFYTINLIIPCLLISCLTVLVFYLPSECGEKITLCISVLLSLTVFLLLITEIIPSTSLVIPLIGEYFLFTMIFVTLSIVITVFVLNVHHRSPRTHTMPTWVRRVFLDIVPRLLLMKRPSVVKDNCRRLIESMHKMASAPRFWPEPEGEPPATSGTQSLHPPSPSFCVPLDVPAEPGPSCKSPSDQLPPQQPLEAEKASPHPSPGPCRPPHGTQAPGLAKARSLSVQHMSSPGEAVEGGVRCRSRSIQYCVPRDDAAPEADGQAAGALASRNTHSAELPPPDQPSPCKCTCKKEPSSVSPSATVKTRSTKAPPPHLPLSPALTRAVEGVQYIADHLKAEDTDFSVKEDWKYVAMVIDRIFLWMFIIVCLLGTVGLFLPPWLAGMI
- experimental-protocol: Two-electrode voltage-clamp of ACh-induced currents in Xenopus oocytes
- condition-info: read-out: LY2087101 potentiation EC50
pEC50: −log10 of the molar value.
property-name: pEC50

compound_structure_string=Cc1nc(Nc2ccc(F)cc2)sc1C(=O)c1ccsc1 assay_value=5.51

* * *

- experimental-system: (α4C254S)3(β2)2 nAChR (Homo sapiens, UniProt P17787+P43681, C254S)
- Construct: expressed in transfected cells; host or cells: Xenopus laevis oocytes injected with cRNA
- Sequence (P43681 29-627 C254S limits assumed): as the sequence (P43681 29-627 L260M limits assumed) above, with C226S, M232L counted along it
- Sequence (P17787 26-502): as the sequence (P17787 26-502) above
- experimental-protocol: Two-electrode voltage-clamp of ACh-induced currents in Xenopus oocytes
- Format: cell-based
- condition-info: read-out: dFBr potentiation EC50
property-name: EC50 (nM)

compound_structure_string=C=CC(C)(C)c1[nH]c2cc(Br)ccc2c1CCNC assay_value=1500

* * *

- experimental-system: (α4)2(β2)3 nAChR (Homo sapiens, UniProt P17787+P43681)
- Construct: expressed in transfected cells; host or cells: Xenopus laevis oocytes injected with cRNA
- Sequence (P43681 29-627 limits assumed, one chain of several): as the sequence (P43681 29-627 L310F limits assumed, one chain of several) above, with F282L counted along it
- experimental-protocol: Two-electrode voltage-clamp of ACh-induced currents in Xenopus oocytes
- Type: cell-based
- condition-info: co-applied with 10 µM ACh; HS WT; read-out: LY2087101 potentiation EC50
property-name: EC50 (nM)

compound_structure_string=Cc1nc(Nc2ccc(F)cc2)sc1C(=O)c1ccsc1 measure_unit=nM assay_value=1900

* * *

- experimental-system: (α4L291V)3(β2)2 nAChR (Homo sapiens, UniProt P17787+P43681, L291V)
- Construct: expressed in transfected cells; host or cells: Xenopus laevis oocytes injected with cRNA
- Sequence (P43681 29-627 L291V limits assumed, one chain of several): as the sequence (P43681 29-627 L310F limits assumed, one chain of several) above, with L263V, F282L counted along it
- experimental-protocol: Two-electrode voltage-clamp of ACh-induced currents in Xenopus oocytes
- Type: cell-based
- condition-info: read-out: LY2087101 potentiation EC50
property-name: EC50 (nM)

compound_structure_string=Cc1nc(Nc2ccc(F)cc2)sc1C(=O)c1ccsc1 property_name=EC50 measure_unit=nM assay_value=1600

* * *

- experimental-system: (α4F606Y)3(β2)2 nAChR (Homo sapiens, UniProt P17787+P43681, F606Y)
- experimental-protocol: Two-electrode voltage-clamp of ACh-induced currents in Xenopus oocytes
- condition-info: read-out: LY2087101 potentiation EC50
- Source text: […]
property-name: EC50 (nM)

compound_structure_string=Cc1nc(Nc2ccc(F)cc2)sc1C(=O)c1ccsc1 experimental_system="(α4F606Y)3(β2)2 nAChR (Homo sapiens, UniProt P17787+P43681, F606Y)" property_name=EC50 assay_value=300

* * *

- experimental-system: (α4)3(β2)2 nAChR (Homo sapiens, UniProt P17787+P43681)
- Construct: expressed in transfected cells; host or cells: Xenopus laevis oocytes injected with cRNA
- Sequence (P43681 29-627 limits assumed, one chain of several): as the sequence (P43681 29-627 L310F limits assumed, one chain of several) above, with F282L counted along it
- experimental-protocol: Two-electrode voltage-clamp of ACh-induced currents in Xenopus oocytes
- Type: cell-based
- condition-info: read-out: dFBr potentiation EC50
property-name: EC50 (nM)

compound_structure_string=C=CC(C)(C)c1[nH]c2cc(Br)ccc2c1CCNC property_name=EC50 assay_value=1000
